Tested on: KM12
Assay: NCI tumour cell line growth inhibition, 48 h
Activity calls are given as the source filed them. No stated cut-off is given here; in the data, active = GI50 up to about 1.1 µM and inactive = higher.
Output constraint: value belongs to active, inactive

Study these solved cases before continuing.
- C=C1C(=O)O[C@@H]2[C@H]1C[C@@H](O)[C@H](C)[C@@](O)(C(=O)/C=C/C)[C@H]2OC(=O)C(C)CC (stereo partly specified): inactive
- CC(C)(C)[Si](C)(C)OC1/C(=C/C#N)C(n2ccc(=O)[nH]c2=O)OC1CO (stereo unspecified): inactive
- O=C1C(Cl)=C(N2CCN(c3ccccn3)CC2)C(=O)c2c(O)ccc(O)c21: inactive
- COc1ccc2nc3cc(Cl)ccc3c(NCCCN(C)CCCNc3ccc4ncn5c6ccccc6c(=O)c3c45)c2c1: active

Query block: Recorded test outcome, item O=C(NC1CCCCC1)N1CCNC1=S
Result block: inactive

Query block: Recorded test outcome, item Cc1cn(C2CC(N=[N+]=[N-])C(CO[Si](C)(C)C(C)(C)C)O2)c(=O)[nH]c1=O (stereo unspecified)
Result block: inactive

Query block: Recorded test outcome, item N#CC1(c2ccccc2)CCN(C2(c3ccccc3)CCCCC2)CC1
Result block: inactive

Query block: Recorded test outcome, item O=c1[nH]cnc2c1nnn2C1C=C(CO)C(O)C1O (stereo unspecified)
Result block: inactive

Query block: Recorded test outcome, item CC1CN=C(Nc2cccc(C(F)(F)F)c2)S1 (stereo unspecified)
Result block: inactive

Query block: Recorded test outcome, item CC(=O)Nc1ccc(/C=c2\sc3nnc(CCC(=O)Nc4ccccc4Cl)n3c2=O)cc1
Result block: inactive

Query block: Recorded test outcome, item [O-][S+]1c2ccccc2NC(c2ccc3ccccc3c2)CC1c1ccccc1 (stereo unspecified)
Result block: inactive

Query block: Recorded test outcome, item COc1ccc2[nH]c3c(c2c1)COc1ccccc1C3=O
Result block: inactive

Query block: Recorded test outcome, item Cc1ccc(/C=C2\CCCC(CN3CCCCC3)C2=O)cc1 (stereo unspecified)
Result block: inactive

----------
System: HCT-116
Assay: NCI tumour cell line growth inhibition, 48 h
Activity calls are given as the source filed them. Rule as the data show it: active = GI50 up to about 1.1 µM and inactive = higher.
Result Type: GI50

Query block: For C/C(Cl)=N/OC(=O)Nc1ccc(S(N)(=O)=O)c(C)c1 , what is its reported GI50?
Result block: 12 µM (inactive)

Query block: For COc1cc([C@@H]2c3cc4c(cc3[C@@H](NCc3ccccc3F)C3COC(=O)[C@@H]32)OCO4)cc(OC)c1O (stereo not given in full) , what is its reported GI50?
Result block: 5.27 µM (inactive)

Query block: For COc1ccc(CC2c3c(cc(OC)c(OC)c3OC)CCN2C)cc1OC (stereo not given) , what is its reported GI50?
Result block: > 100 µM (inactive)

Query block: For Oc1c(N2CCCCC2)cc(-c2cc(N3CCCCC3)c(O)c3ccccc23)c2ccccc12 , what is its reported GI50?
Result block: 19 µM (inactive)

Query block: For CCOC(=O)CCCn1nnc(C(=O)OCC)c1C(=O)OCC , what is its reported GI50?
Result block: > 100 µM (inactive)

----------
Tested on: MDA-MB-231
Test: NCI tumour cell line growth inhibition, 48 h
The source made the active and inactive calls. No stated cut-off is given here; in the data, active = GI50 up to about 1.1 µM and inactive = higher.
Result Type: GI50

Study these solved cases before continuing.
- O=C1Nc2ccc(Cl)cc2C(=O)N2CCC[C@@H]12: > 100 µM (inactive)
- CC(=O)C(CN1C(=O)c2ccccc2C1=O)C(C)=O: > 100 µM (inactive)
- c1nnc(NCNc2nncs2)s1: 30.7 µM (inactive)

Query block: For O=[N+]([O-])c1ccc2c(c1)nc(Cc1ccccc1)n2C[C@@H]1CCCN2CCCCC12 (stereo partly specified) , what is its reported GI50?
Result block: 31.3 µM (inactive)

Query block: For Cc1cc(S(=O)(=O)Nc2nc(N)n(-c3cnc4ccccc4n3)n2)c(S)cc1Cl , what is its reported GI50?
Result block: > 100 µM (inactive)

Query block: For COC(=O)/C=C/c1ccc2c(c1)CC1(C2)Cc2cc3c(cc2C1=O)CCC3 (stereo unspecified) , what is its reported GI50?
Result block: 39 µM (inactive)

src = ChEMBL document CHEMBL1201862
